Here the recorded melting point is given for each entry.

| compound | melting point |
| --- | --- |
| Fc1ccc(C(c2ccccc2)(c2ccccc2F)n2ccnc2)cc1 (stereo not given) | 164 to 167 °C |
| Cc1ccc(N2C(=O)C(O)=C(C(=O)c3ccc(C(C)C)cc3)C2c2ccc(OC(F)(F)F)cc2)cn1 (stereo not given) | 214 to 218 °C |
| CC(=O)CC(=O)NCC1C(NC(=O)CC(C)=O)C(C)CC1(C)C (stereo not given) | 94 to 114 °C |
| NC(=O)C1=CCCNC1 | 122 to 124 °C |
| O=C1CCCC(c2ccccc2)N1c1ccc(F)cc1 (stereo not given) | 87.5 to 88.5 °C |
| Cc1cccc(CCC(O)(P(=O)(O)O)P(=O)(O)O)c1N | 133 °C |
| CC(C)(C)c1cc(SCCc2nnc(N)o2)cc(C(C)(C)C)c1O | 172 to 174 °C |
| CCOC(=O)C(O[Si](C)(C)C)C(O[Si](C)(C)C)c1cc(OC)c(OC)cc1[N+](=O)[O-] (stereo not given) | 151 to 153 °C |
| CC(C)NC1=NS(=O)(=O)c2cc([N+](=O)[O-])ccc2N1 | 311 to 313 °C |
| COC(=O)/C=C/C=C(/c1ccc(OC)cc1)c1cccs1 | 97 to 99 °C |
| C=CCN(c1ncnc2c1ncn2CC(C)O)C1CCCCC1 (stereo not given) | 108 to 110 °C |
| CC(=O)Nc1ccc(Oc2ncc(Cl)cn2)cc1 | 202 °C |
| Fc1ccc(NCc2ccccc2)cc1 | 38 to 39 °C |
| CS(=O)(=O)c1ccc(Cn2ccc3c4c(N)nc(N)nc4ccc32)cc1 | 248 °C |
| CS(=O)(=O)c1ccc(/C(=C(\CCO[N+](=O)[O-])C(=O)O)c2ccc(Cl)cc2)cc1 | 143 to 144 °C |
| O=C(CCSc1ccc2ccccc2c1)c1ccccc1 | 90 to 91 °C |
| CCCCN1CCc2c(C)nc3ncnn3c21 | 72 to 75 °C |
| CCc1nc2c(C)cc(C)nc2n1Cc1ccc(C(=C(Br)C(=O)O)c2ccccc2)cc1 | 125 to 129 °C |
| N#Cc1ccc(NC(=O)CCCC(=O)O)cc1 | 200 to 201 °C |
| COC(=O)CCc1conc1-c1ccc(F)c(Br)c1 | 57 to 58 °C |
| Nc1nc2c(ncn2COCCO)c(=S)[nH]1 | 251 to 254 °C |
| COc1ccc(N(C)c2nc(C)nc3oc(C)cc23)cc1 | 108 to 109 °C |
| CCOC(=O)C(=O)Nc1ccc2c(c1)-n1cc(C(=O)OC)nc1CO2 | 186 to 188 °C |
| CC(=O)C(=[N+]=[N-])C(=O)CCCCCCCCCc1ccccc1 | 29 to 31 °C |
| CC(C)(C)OC(=O)N[C@H](Cc1ccc(CC(F)(F)C(F)(F)F)cc1)[C@@H](O)c1cccc(Cl)c1 (racemic) | 156 to 157 °C |

Provenance of the data: a melting point compilation (Tetko et al.; mined from patent text by program, amines drawn as free bases though some values may be those of a salt)
